Source listed as PubChem BioAssay (NCI).

measurement-protocol: NCI Yeast Anticancer Drug Screen. Data for the sgs1 mgt1 strain (AID 161);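 further: 0% = growth of cultures given vehicle only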
condition-summary: S. cerevisiae sgs1 mgt1 strain, at 50.0 µM, active compounds read high
This is part of a sample that, as a whole, favours compounds with a hit. Of some 79,000 tested, about 15% had one in any assay.
property-label: growth inhibition (%)

[[record]]
molecule = "COc1ccc2[se]c(C)nc2c1"
property_label = "growth inhibition"
readout_unit = "%"
recorded_value = 5.3

[[record]]
molecule = "CN(C)C1=C(N2CC2)C(=O)C(N(C)C)=C(N2CC2)C1=O"
property_label = "growth inhibition"
readout_unit = "%"
recorded_value = 14.6

[[record]]
molecule = "NC(C/C=C/P(=O)(O)O)C(=O)O (configuration not stated)"
property_label = "growth inhibition"
readout_unit = "%"
recorded_value = -14.8

[[record]]
molecule = "CC(=O)CCNC1(c2ccccc2)CCCCC1"
property_label = "growth inhibition"
readout_unit = "%"
recorded_value = -2.65

[[record]]
molecule = "O=C1NC(=S)NC(=O)C1=Cc1cc2c(cc1[N+](=O)[O-])OCO2"
property_label = "growth inhibition"
readout_unit = "%"
recorded_value = 4.4

[[record]]
molecule = "O=C1NC(=O)C(Cc2cccc(OCc3ccccc3)c2)C(=O)N1"
property_label = "growth inhibition"
readout_unit = "%"
recorded_value = -1.65

[[record]]
molecule = "NC1CC(O)C(O)CC1c1ccc2c(c1)OCO2 (configuration not stated)"
property_label = "growth inhibition"
readout_unit = "%"
recorded_value = -15.9

[[record]]
molecule = "CN(C)c1ccc(N=Nc2ccc([As](=O)(O)O)cc2)cc1"
property_label = "growth inhibition"
readout_unit = "%"
recorded_value = -11.8

[[record]]
molecule = "CC(=O)Oc1ccc(CCN(C)C2CC3CCC2(C)C3(C)C)cc1OC(C)=O (configuration not stated)"
property_label = "growth inhibition"
readout_unit = "%"
recorded_value = 46.2

[[record]]
molecule = "NC(=O)Cc1ccccc1"
property_label = "growth inhibition"
readout_unit = "%"
recorded_value = -6.55

[[record]]
molecule = "CO[C@H](C)[C@](O)(C(=O)OCC1=CCN2CC[C@@H](O)[C@H]12)C(C)C"
property_label = "growth inhibition"
readout_unit = "%"
recorded_value = -8.8

[[record]]
molecule = "Brc1ccc(-c2csc3c4ccccc4cc[n+]23)cc1"
property_label = "growth inhibition"
readout_unit = "%"
recorded_value = 12.2


====

measurement-protocol: NCI Yeast Anticancer Drug Screen. Data for the cln2 rad14 strain (AID 165);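 further: 0% = growth equal to vehicle treated cultures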
condition-summary: S. cerevisiae cln2 rad14 strain, at 50.0 µM, active compounds read high
Compounds without any hit were thinned out: in the full panel of roughly 79,000, 15% have a hit.
property-label: growth inhibition (%)

[[record]]
molecule = "CO[C@@]12[C@H](COC(N)=O)C3=C(C(=O)C(C)=C(NCCO)C3=O)N1C[C@@H]1N[C@@H]12"
readout_unit = "%"
recorded_value = -0.4

[[record]]
molecule = "Cc1ccc2[nH]c(=S)n(-c3cccc(C(F)(F)F)c3)c(=O)c2c1"
readout_unit = "%"
recorded_value = 20.7

[[record]]
molecule = "Cc1ccc(N)cc1"
readout_unit = "%"
recorded_value = -1.1

[[record]]
molecule = "CCCc1ccc(CCN)cc1"
readout_unit = "%"
recorded_value = -9.45

[[record]]
molecule = "Cc1ccc([NH-])cc1.Cc1ccc([NH-])cc1.[Cl][Pt+2][Cl]"
readout_unit = "%"
recorded_value = -61.7

[[record]]
molecule = "O=C(c1ccccc1)C1NC1c1ccccc1 (stereo not drawn)"
readout_unit = "%"
recorded_value = -16.6

[[record]]
molecule = "CC(=[N-])CC(C)=O.CC(=[N-])CC(C)=O.[Cu+2]"
readout_unit = "%"
recorded_value = -18.3

[[record]]
molecule = "Cc1ccc(C)c(C(C)NC2=NCCO2)c1 (stereo not drawn)"
readout_unit = "%"
recorded_value = 1.2

[[record]]
molecule = "O=C(NCCO)c1cc([N+](=O)[O-])cc([N+](=O)[O-])c1"
readout_unit = "%"
recorded_value = -25.9

[[record]]
molecule = "NC(Cc1ccc(O)c(F)c1)C(=O)O (stereo not drawn)"
readout_unit = "%"
recorded_value = -2.75

[[record]]
molecule = "O=NN1CCCCC1"
readout_unit = "%"
recorded_value = -15.1

[[record]]
molecule = "S=C1c2ccc(Cl)cc2-n2cnnc2C2CSCN12 (stereo not drawn)"
readout_unit = "%"
recorded_value = 0.9

[[record]]
molecule = "O=S(=O)(O)O.[Cr+3].[NH-]CC[NH-].[NH-]CC[NH-].[NH-]CC[NH-]"
readout_unit = "%"
recorded_value = -36.5

